- Test system: Staphylococcus epidermidis CCM 4418 (ATCC 12228)
- experiment.summary: Antibacterial microdilution broth (EUCAST)
- Type: cell-based
- condition.info: Staphylococcus epidermidis; 24h incubation; read-out: MIC SE
Items are presented alongside their recorded MIC.
Give the value in µM but do not write µM after it.

For record Cc1cncc(C(=O)Nc2nc(-c3ccccc3)co2)c1 [Compound 14b] the listed MIC is 250

For record O=C(Nc1nc(-c2ccccc2)co1)c1ccccc1 [Compound 20b] the listed MIC is 250

For record Cc1cc(C(=O)Nc2ncco2)cc(Cl)n1 [Compound 7b] the listed MIC is 125

For record O=C(Nc1nccs1)c1cnccn1 [Compound 8a] the listed MIC is 500

---

- Test system: Candida parapsilosis CCM 8260 (ATCC 22019)
- experiment.summary: Antifungal microdilution broth (EUCAST)
- condition.info: Lodderomyces parapsilosis, 24 h, read-out: MIC CP
Items are presented alongside their recorded MIC.

See these solved cases before continuing.
INSERT INTO results (compound, value) VALUES
  ('Cc1cc(C(=O)Nc2ncco2)ccn1', '> 125 µM'),
  ('O=C(Nc1nc(-c2ccccc2)cs1)c1ccnc(Cl)c1 [Compound 15a]', '> 125 µM');

For record `O=C(Nc1nccs1)c1cnc(Cl)cn1` the listed MIC is > 500 µM

For record `O=C(Nc1ncco1)c1ccccn1` the listed MIC is > 500 µM

For record O=C(Nc1nc(-c2ccccc2)co1)c1cnc2ccccc2n1 [Compound 19b] the listed MIC is > 125 µM

For record O=C(Nc1nc(-c2ccccc2)cs1)c1ccccn1 [Compound 11a] the listed MIC is > 500 µM

For record `O=C(Nc1ncco1)c1cccnc1` the listed MIC is 250 µM

For record O=C(Nc1nc(-c2ccccc2)co1)c1ccncc1 [Compound 13b] the listed MIC is > 500 µM

For record Cc1cc(C(=O)Nc2nc(-c3ccccc3)co2)cc(Cl)n1 [Compound 16b] the listed MIC is > 125 µM

For record `Cc1cc(C(=O)Nc2nccs2)cc(Cl)n1` the listed MIC is > 125 µM

---

- System: Mtb MATI (MDR clinical isolate)
- experiment.summary: microbe, parasite or virus in culture
- Assay type: cell-based
- condition.info: Mycobacterium tuberculosis, read-out: MIC Mtb MATI
reported.metric: MIC

INSERT INTO measurements (compound, reported_metric, value) VALUES
  ('CC[C@@H](CO)NCCN[C@@H](CC)CO', 'MIC', '1.56 µg/mL'),
  ('NNC(=O)c1ccncc1 [INH, isoniazid, reference compound]', 'MIC', '12.5 µg/mL'),
  ('Cc1cc(C(=O)Nc2ncco2)cc(Cl)n1', 'MIC', '3.13 µg/mL');

Here is the next item to consider.
For record `O=C(Nc1ncco1)c1ccnc(Cl)c1` the listed MIC is 3.13 µg/mL

---

Items are presented alongside their recorded MIC.
- Tested on: Mycobacterium tuberculosis H37Ra ITM-M006710 (ATCC 9431)
- experiment.summary: Antimycobacterial MIC, microdilution broth / Alamar Blue (resazurin)
- Format: cell-based
- condition.info: Mycobacterium tuberculosis, 120 h, Middlebrook 7H9, resazurin after 120 h; read-out: Mtb H37Ra MIC

INSERT INTO assay_data (compound, value) VALUES
  ('O=C(Nc1ncco1)c1cnc(Cl)cn1', '31.2 µg/mL');

For record O=C(Nc1nc(-c2ccccc2)co1)c1cnc(Cl)cn1 [Compound 18b] the listed MIC is 15.6 µg/mL

For record NNC(=O)c1ccncc1 [INH, isoniazid, reference compound] the listed MIC is 0.25 µg/mL

---

Items are presented alongside their recorded MIC.
- System: Pseudomonas aeruginosa CCM 3955 (ATCC 27853)
- experiment.summary: Antibacterial microdilution broth (EUCAST)
- Format: cell-based
- condition.info: Pseudomonas aeruginosa; 72h incubation; read-out: MIC PA

For record `Cc1cc(C(=O)Nc2ncco2)cc(Cl)n1` the listed MIC is > 500 µM

---

Items are presented alongside their recorded MIC.
- Tested on: Candida krusei CCM 8271 (ATCC 6258)
- experiment.summary: Antifungal microdilution broth (EUCAST)
- condition.info: Pichia kudriavzevii, 24 h, read-out: MIC CK

See these solved cases before continuing.
INSERT INTO assay_data (compound, value) VALUES
  ('Cc1cc(C(=O)Nc2ncco2)cc(Cl)n1', '500 µM'),
  ('O=C(Nc1nc(-c2ccccc2)co1)c1ccccc1 [Compound 20b]', '500 µM'),
  ('O=C(Nc1nc(-c2ccccc2)co1)c1cnccn1 [Compound 17b]', '> 500 µM'),
  ('O=C(Nc1ncco1)c1cnc2ccccc2n1 [Compound 10b]', '250 µM'),
  ('O=C(Nc1nccs1)c1cnccn1', '> 500 µM'),
  ('O=C(Nc1ncco1)c1cnc(Cl)cn1', '250 µM');

For record O=C(Nc1nc(-c2ccccc2)cs1)c1cnc2ccccc2n1 [Compound 19a] the listed MIC is > 125 µM

For record `Cc1cncc(C(=O)Nc2ncco2)c1` the listed MIC is > 500 µM

For record O=C(Nc1nc(-c2ccccc2)co1)c1cccnc1 [Compound 12b] the listed MIC is > 500 µM

For record O=C(Nc1nc(-c2ccccc2)cs1)c1ccnc(Cl)c1 [Compound 15a] the listed MIC is > 125 µM

For record `O=C(Nc1nccs1)c1cnc(Cl)cn1` the listed MIC is > 500 µM

---

- System: Candida parapsilosis CCM 8260 (ATCC 22019)
- experiment.summary: Antifungal microdilution broth (EUCAST)
- condition.info: Lodderomyces parapsilosis, 24 h, read-out: MIC CP
Items are presented alongside their recorded MIC.
Give the value in µM but do not write µM after it.

See these solved cases before continuing.
INSERT INTO assay_data (molecule, value) VALUES
  ('O=C(Nc1ncco1)c1ccnc(Cl)c1', 250),
  ('O=C(Nc1ncco1)c1cnc2ccccc2n1 [Compound 10b]', 500),
  ('O=C(Nc1nc(-c2ccccc2)co1)c1ccccn1 [Compound 11b]', 500),
  ('O=C(Nc1nc(-c2ccccc2)co1)c1ccccc1 [Compound 20b]', 500);

Here is the next item to consider.
For record `Cc1cc(C(=O)Nc2ncco2)cc(Cl)n1` the listed MIC is 500

---

Items are presented alongside their recorded MIC.
- System: Candida krusei CCM 8271 (ATCC 6258)
- experiment.summary: Antifungal microdilution broth (EUCAST)
- condition.info: Pichia kudriavzevii, 24 h, read-out: MIC CK

See these solved cases before continuing.
INSERT INTO results (compound, measured_target, value) VALUES
  ('O=C(Nc1nccs1)c1ccccn1', 'Candida krusei CCM 8271 (ATCC 6258)', '500 µM'),
  ('O=C(Nc1nccs1)c1cccnc1', 'Candida krusei CCM 8271 (ATCC 6258)', '> 500 µM'),
  ('O=C(Nc1ncco1)c1cccnc1', 'Candida krusei CCM 8271 (ATCC 6258)', '500 µM'),
  ('Cc1cncc(C(=O)Nc2nc(-c3ccccc3)co2)c1 [Compound 14b]', 'Candida krusei CCM 8271 (ATCC 6258)', '> 500 µM'),
  ('Cc1cc(C(=O)Nc2nccs2)cc(Cl)n1', 'Candida krusei CCM 8271 (ATCC 6258)', '> 125 µM');

Here is the next item to consider.
For record O=C(Nc1nc(-c2ccccc2)cs1)c1ccccn1 [Compound 11a] the listed MIC is > 500 µM

---

- experiment.summary: Kinetic water solubility (water-induced precipitation of DMSO stock, UHPLC)
- Assay type: physicochemical
- condition.info: water (DMSO stock diluted with water), kinetic from dmso stock; water, kinetic method, DMSO stock diluted to 500 μM, 18 °C; read-out: Solubility
reported.metric: log10(solubility) (log10 of the value in mg/mL)
Note: values are log10 of solubility expressed in mg/mL.

INSERT INTO assay_data (compound, reported_metric, value) VALUES
  ('O=C(Nc1nc(-c2ccccc2)co1)c1ccnc(Cl)c1 [Compound 15b]', 'log10(solubility)', -0.91),
  ('O=C(Nc1nc(-c2ccccc2)co1)c1cccnc1 [Compound 12b]', 'log10(solubility)', -0.94),
  ('O=C(Nc1nc(-c2ccccc2)cs1)c1ccnc(Cl)c1 [Compound 15a]', 'log10(solubility)', -2.68),
  ('O=C(Nc1nc(-c2ccccc2)cs1)c1cccnc1 [Compound 12a]', 'log10(solubility)', -3.55);

For record `O=C(Nc1nccs1)c1ccnc(Cl)c1` the listed log10(solubility) is -1.52

---

- experiment.summary: RP-UHPLC lipophilicity parameter log k’w
- Format: physicochemical
- condition.info: RP-UHPLC, acetonitrile/water, log k extrapolated to 0% acetonitrile
Items are presented alongside their recorded log k’w.

INSERT INTO results (compound, value) VALUES
  ('Cc1cc(C(=O)Nc2nc(-c3ccccc3)cs2)cc(Cl)n1 [Compound 16a]', 3.314);

For record `O=C(Nc1nccs1)c1cnccn1` the listed log k’w is 1.222

For record O=C(Nc1nc(-c2ccccc2)co1)c1ccncc1 [Compound 13b] the listed log k’w is 1.163

For record `O=C(Nc1nccs1)c1cnc(Cl)cn1` the listed log k’w is 1.941

For record `O=C(Nc1ncco1)c1ccnc(Cl)c1` the listed log k’w is 1.136

For record O=C(Nc1nc(-c2ccccc2)co1)c1ccccc1 [Compound 20b] the listed log k’w is 2.090

For record O=C(Nc1nc(-c2ccccc2)co1)c1cnc2ccccc2n1 [Compound 19b] the listed log k’w is 2.465
